target: Glutamate receptor 2 (Homo sapiens); test: Positive allosteric modulation of GluA2 (Q) flop isoform (unknown origin) expressed in HEK293 cells assessed as potentiation of glutamate-evoked calcium flux by fluo-4/AM dye-based fluorescence assay; type: cell-based; conditions: read-out: EC50
Sequence (P42262 whole entry, canonical isoform): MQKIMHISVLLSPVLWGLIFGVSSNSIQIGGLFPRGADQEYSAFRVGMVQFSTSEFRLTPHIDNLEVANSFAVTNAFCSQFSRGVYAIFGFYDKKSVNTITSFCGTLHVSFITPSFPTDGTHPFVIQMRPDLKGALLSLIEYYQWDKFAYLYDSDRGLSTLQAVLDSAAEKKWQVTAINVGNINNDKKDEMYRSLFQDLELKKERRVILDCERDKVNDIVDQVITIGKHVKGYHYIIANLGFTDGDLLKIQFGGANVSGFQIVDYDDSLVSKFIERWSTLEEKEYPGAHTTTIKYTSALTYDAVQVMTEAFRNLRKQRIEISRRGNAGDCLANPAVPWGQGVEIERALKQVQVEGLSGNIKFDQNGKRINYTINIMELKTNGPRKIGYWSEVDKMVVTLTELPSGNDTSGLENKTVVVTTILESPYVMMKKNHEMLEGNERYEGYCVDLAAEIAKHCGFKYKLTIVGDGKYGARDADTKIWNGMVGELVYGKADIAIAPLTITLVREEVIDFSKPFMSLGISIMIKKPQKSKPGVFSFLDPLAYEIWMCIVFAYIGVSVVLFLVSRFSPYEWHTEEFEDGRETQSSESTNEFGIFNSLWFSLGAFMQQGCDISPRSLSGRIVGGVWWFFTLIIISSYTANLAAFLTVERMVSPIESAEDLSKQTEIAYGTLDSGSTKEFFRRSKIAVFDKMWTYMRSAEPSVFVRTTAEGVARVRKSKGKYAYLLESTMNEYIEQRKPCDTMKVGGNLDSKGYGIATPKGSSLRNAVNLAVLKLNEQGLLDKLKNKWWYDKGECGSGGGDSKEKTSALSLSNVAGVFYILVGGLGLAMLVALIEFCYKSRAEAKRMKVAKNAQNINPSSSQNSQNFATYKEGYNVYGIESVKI
pEC50: −log10 of the molar value.
property: pEC50

Worked set:
compound=COc1cccc(Oc2ccc3c(c2)S(=O)(=O)NCN3C)c1 observed_result=6.43
compound=N#Cc1cccc(Oc2ccc3c(c2)S(=O)(=O)NCN3C2CC2)c1 observed_result=6.35
compound=COc1ccc(Oc2ccc3c(c2)S(=O)(=O)NCN3C2CC2)cc1 observed_result=5.74
compound=O=S1(=O)NCN(C2CC2)c2ccc(F)cc21 observed_result=6.09
compound=COc1ccc(Oc2ccc3c(c2)S(=O)(=O)NCN3C)cc1 observed_result=5.23

I = Cc1cccc(Oc2ccc3c(c2)S(=O)(=O)NCN3C)c1
II = Cc1ccc(Oc2ccc3c(c2)S(=O)(=O)NCN3C)cc1
Input: Parameter check: reported pEC50 is higher for which label, I or II ? Respond with the label that goes with your answer.
Output: I
(I: 6.41, II: 6.02)

1 = O=S1(=O)NCN(CCF)c2ccc(Cl)cc21
2 = COc1cccc(Oc2ccc3c(c2)S(=O)(=O)NCN3C2CC2)c1
3 = Cc1cccc(Oc2ccc3c(c2)S(=O)(=O)NCN3C2CC2)c1
Input: Sort (3 compounds) by pEC50: min first. To answer, write out the labels according to the requested order.
Output: 1, 3, 2
(1: 4.69, 3: 7.30, 2: 8.70)

a = Cc1ccccc1Oc1ccc2c(c1)S(=O)(=O)NCN2C1CC1
b = O=S1(=O)NCN(C2CC2)c2ccc(Oc3ccccc3)cc21
Input: Field: lower pEC50 | Options: a / b Respond with the label that goes with your answer.
Output: a
